molecular target: ZFP SBS#314 (synthetic); test: EMSA; conditions: tags: MBP fusion
Sequence (chain, as listed by the source): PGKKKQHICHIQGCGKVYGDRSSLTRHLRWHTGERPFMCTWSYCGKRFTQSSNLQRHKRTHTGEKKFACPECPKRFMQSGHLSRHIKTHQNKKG
OUTCOME_MEASURE: pKd
Answers are plain numbers, as −log10 of the molar value.

Output measured pKd for this item: GGAGATGCC (dsDNA) DNA 1: GGAGATGCC DNA 2: GGCATCTCC
6.93
